Measured values drawn from the RNAGym collection of RNA variant scans (doi:10.1021/acssynbio.7b00057) for this set.

B1: Pistol ribozyme (parent)
chain: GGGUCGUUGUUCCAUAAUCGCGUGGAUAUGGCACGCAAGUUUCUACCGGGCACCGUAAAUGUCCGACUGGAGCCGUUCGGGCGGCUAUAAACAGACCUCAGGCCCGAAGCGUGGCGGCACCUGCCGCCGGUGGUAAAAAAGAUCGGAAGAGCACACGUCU

variants of: B1; test: aptazyme ON/OFF ratio, guanine; higher = stronger switching; co-transcriptional cleavage with and without guanine

Mutant Id | aptazyme ON/OFF ratio
U7A U8C G9C U10G U11C C12G C13U | 1.12
U7G G9C U10C U11C C12U C13U | 1.11
C12U C13A | 1.28
U7C U8A U10G C12G | 1.34
U7G G9A U10A U11G C12G | 1.13
U8G U10C C12U | 3.67
U7A G9U U10C U11A C12G C13U | 1.12
U7A U8G G9A U10A U11G C12G C13A | 1.38
U7G G9C U10G U11A C13A | 1.18
U7C U8A U10C U11A C12U | 1.19
U7A U8C G9U U10G U11A C12U C13U | 1.2
G9U U11C C12A C13U | 1.36
U7C U8G C12A C13A | 1.22
G9C U10A U11C C12G C13U | 1.24
U8C G9A U10C U11A C12A C13A | 1.23
U7G U8G G9U U10A U11A C13G | 1.08
U7G U8C U10G U11C C12G C13A | 1.28
G9C U10G U11C C12U C13A | 1.2
U8G G9U U10C U11G C12A | 1.12
U7C U8A G9U U10A U11G C12G C13U | 1.12
U7C U8A U10G U11A C12U | 1.16
G9U U10G U11C C12G C13G | 1.06
